Biological target: T1, CD81 (UniProt P60033 1-236, limits assumed)
T1 construct: whole, on cells; also called CD81 receptor
T1 sequence (looked up): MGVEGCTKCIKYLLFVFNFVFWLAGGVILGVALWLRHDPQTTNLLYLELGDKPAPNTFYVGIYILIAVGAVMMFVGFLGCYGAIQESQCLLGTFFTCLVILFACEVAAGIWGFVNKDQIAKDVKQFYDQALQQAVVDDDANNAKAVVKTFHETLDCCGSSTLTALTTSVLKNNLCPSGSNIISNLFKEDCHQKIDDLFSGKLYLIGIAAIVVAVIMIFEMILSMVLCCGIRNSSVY
Assay: cell ELISA;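 also: antibody binding to HuH7 cells expressing CD81 versus a CD81-negative HuH7 control line, bound antibody detected by secondary reagent, absorbance at 450 nm with 620 nm reference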
readout.name: ELISA data
Format: numeric value only, no unit, no commentary.

I have this binder here, CD81K04 HC JA_GG-15-hVH_1_3 / LC JA_GG-09-hVK_4_1 (antibody, V domains shown, human constant region) VH: QVQLVQSGAEVKKPGASVKVSCKASGYTFSSSWMNWVRQAPGQRLEWMGRIYSGDGDAIYNGKFKGRVTITADTSASTAYMELSSLRSEDTAVYYCAREGKTGDLLLRSWGQGTLVTVSS VL: DIVMTQSPDSLAVSLGERATINCKSSKSVSTSIYSYMHWYQQKPGQPPKLLIKYASTRESGVPDRFSGSGSGTDFTLTISSLQAEDVAVYYCEHSREFPFTFGQGTKLEIK , and I need its recorded ELISA data.
0.936

Look up ELISA data: CD81K04 HC JA_GG-14-hVH_1_69-GA / LC GG-06-hVK_1_39 (antibody, V domains shown, human constant region) VH: QVQLVQSGAEVKKPGSSVKVSCKASGYTFSSSWMNWVRQAPGQGLEWMGRIYSGDGDAIYNGKFKGKATITADESTSTAYMELSSLRSEDTAVYYCAREGKTGDLLLRSWGQGTLVTVSS VL: DIQMTQSPSSLSASVGDRVTITCRASKSVSTSIYSYLNWYQQKPGKAPKLLIYYASYLQSGVPSRFSGSGSGTDFTLTISSLQPEDFATYYCQHSREFPYTFGQGTKLEIK
0.066

Value lookup for ELISA data; key = CD81K04 HC K04_JA-13-hVH_1_3 / LC GG-03-hVK_4_1 (antibody, V domains shown, human constant region) VH: QVQLVQSGAEVKKPGASVKVSCKASGYTFSSSWMNWVRQAPGQRLEWMGRIYSGDGDAIYNGKFKGRVTITRDTSASTAYMELSSLRSEDTAVYYCAREGKTGDLLLRSWGQGTLVTVSS VL: DIVMTQSPDSLAVSLGERATINCKSSKSVSTSIYSYLAWYQQKPGQPPKLLIYYASYRESGVPDRFSGSGSGTDFTLTISSLQAEDVAVYYCQHSREFPFTFGQGTKLEIK
0.423

I'd like to know its ELISA data. The binder in question is CD81K04 HC GG-04-hVH_1_69 / LC JA_GG-08-hVK_4_1 (antibody, V domains shown, human constant region) VH: QVQLVQSGAEVKKPGSSVKVSCKASGYTFSSSWMNWVRQAPGQGLEWMGRIYSGDGDAIYNQKFQGRATITADESTSTAYMELSSLRSEDTAVYYCAREGKTGDLLLRSWGQGTLVTVSS VL: DIVMTQSPDSLAVSLGERATINCKSSKSVSTSIYSYMHWYQQKPGQPPKLLIKYASYLESGVPDRFSGSGSGTDFTLTISSLQAEDVAVYYCEHSREFPFTFGQGTKLEIK
0.773

Field request: ELISA data | item: CD81K04 HC GG-05-hVH_1_18 / LC JA_GG-08-hVK_4_1 (antibody, V domains shown, human constant region) VH: QVQLVQSGAEVKKPGASVKVSCKASGYTFSSSWMNWVRQAPGQGLEWMGRIYSGDGDAIYAQKLQGRVTMTTDTSTSTAYMELRSLRSDDTAVYYCAREGKTGDLLLRSWGQGTLVTVSS VL: DIVMTQSPDSLAVSLGERATINCKSSKSVSTSIYSYMHWYQQKPGQPPKLLIKYASYLESGVPDRFSGSGSGTDFTLTISSLQAEDVAVYYCEHSREFPFTFGQGTKLEIK
0.881
